meta.source: patent US20200277373A1

# target_system: T1, Human TREM2 protein, on cells (human, UniProt Q9NZC2 19-230)
# T1 sequence: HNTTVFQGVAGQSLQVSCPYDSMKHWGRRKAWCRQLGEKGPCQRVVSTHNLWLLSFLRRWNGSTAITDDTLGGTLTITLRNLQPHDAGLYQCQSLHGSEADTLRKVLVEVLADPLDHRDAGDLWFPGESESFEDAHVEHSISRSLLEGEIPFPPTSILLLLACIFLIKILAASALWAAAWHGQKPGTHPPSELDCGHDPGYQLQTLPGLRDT
# assay_method_text: cell-based or functional assay
measurement_kind: pSyk FOB (30 nM Ab) (fold over background)
Numeric answer only, unit fold over background assumed.

Examples from the recorded data:
49H11.B1 (antibody, IgG3, V domains shown, Mouse hybridoma antibody, IgG3, k; also called RS8.49H11.B1) VH: DVQLQESGPGLVKPSQSLSLTCTVTGYSITSDYAWNWIRQFPGNRLEWMGYISFSGSTSYNPSLKSRISITRDTSKNQFFLQLNSVTTEDTATYYCARWNGNYGFAYWGQGTLVTVSA VL: DVVMTQTPLSLPVSLGDQASISCRSSQSLVHINGNTYLHWYLQKPGQSPKLLIYKVSNRFSGVPDRFSGSGSGTDFTLKISRVEAEDLGVYFCSQSTHVTFTFGSGTKLEIK | 11.6
RS9.F6 (antibody, V domains shown) VH: QVQLQQPGAELVKPGASVKLSCKASGYTFTSYWMHWVKQSPGRGLEWIGRSDPTTGGTNYNEKFKTKATLTVDKPSSTAYMQLSSLTSDDSAVYYCVRTSGTGDYWGQGTSLTVSS VL: DVVMTQTPLSLPVSLGDQASISCRSSQSLVHNNGNTFLHWYLQKPGQSPKLLIYKVSNRFSGVPDRFSGSGSGTDFTLKISRVEAEDLGVYFCSQTTHVPPTFGGGTKLEIK | 8.49

Moving on to another binder below.
Entry 26D2.D1 (antibody, IgG2a, V domains shown, Mouse hybridoma antibody, IgG2a, k; also called RS8.26D2.D1) VH: EVQLQQSGPELVKPGASVKMSCKASGYTFTSYVMHWVKQKPGQGLEWIGYINPYTDGTKYNEKFKGKATLTSDKSSSTAYMDLSSLTSEDSAVYYCARGEVRRYALDYWGQGTSVTVSS VL: DIQMTQSSSSFSVSLGDRVTITCKASEDIYNRLAWYQQKPGNAPRLLISGATSLETGVPSRFSGSGSGKDYTLSITSLQTEDVATYYCQQYWSTPWTFGGGTKLEIK ; pSyk FOB (30 nM Ab) = 1.73
